Data credit: the supplement of paper PMC6555819

System: PXR:RXRa (NR concentration 270 nM, RXRa partner concentration 90 nM)
protocol_details: PBM binding z-score (relative to random genomic background probes); higher = stronger binding; sequences stand for … in GC…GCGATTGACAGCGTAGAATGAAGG
# PBM binding z-score values compiled below
Keep it simple and answer with nothing but the number.

The cases that follow already have their PBM binding z-score on record.
INSERT INTO assay_data (sequence_record, property_measured, quantitative_readout) VALUES
  ('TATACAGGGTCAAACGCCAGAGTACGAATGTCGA', 'PBM binding z-score', 4.49),
  ('ATCTCTAGTTAAAGTTCAGTGAAAGATCGATAGA', 'PBM binding z-score', 2.29),
  ('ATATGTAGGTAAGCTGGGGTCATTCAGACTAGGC', 'PBM binding z-score', 6.07);

Could you share which PBM binding z-score value was measured for CGTCCATGGTCAAGGTCAGTGAAAGAGACTCGAA ?
1.78

Could you share which PBM binding z-score value was measured for GCTATTAGTTGGAAGGGCAACCGAATGATTCTCG ?
-0.247

Could you share which PBM binding z-score value was measured for TCTGATAGGTCAGTTGGTCAGCTAACGAGCTGCC ?
0.816

Could you share which PBM binding z-score value was measured for ATCGAAAGGGCGAAGGTGAGTATACCCACCCGAA ?
0.359

Could you share which PBM binding z-score value was measured for GCTCGGAGGAAAAGGTCAGAGCTTTGTCCGTAGA ?
2.93
